Data provenance is patent US4957927A.

# Measured On: calmodulin (Bos taurus, UniProt P62157)
Measured Quantity: pIC50
// field semantics: pIC50 = negative decimal log of concentration (mol/L)

Ask: So what pIC50 did COc1cccc(C2CCN(CCOC(c3ccc(F)cc3)c3ccc(F)cc3)C2)c1 (stereo not shown) [Example 10] get with calmodulin (Bos taurus, UniProt P62157)?
Reply: 4.08
